// provenance: paper doi:10.1101/208439v1

target: DNMT3b/3L (Homo sapiens, UniProt Q9UBC3); test: biochemical
MEASURED METRIC: IC50 (nM)

> print(dat)
                                 mol.smiles  units  observed
1  Nc1ncnc2c1ncn2[C@@H]1O[C@H](CSCC[C@H](N)C(=O)O)[C@@H](O)[C@H]1O     nM        12

----------
target: NSD2 (Homo sapiens, UniProt O96028, E1099K); construct: full length (residues 2-1365), N-terminal His tag, insect cell/baculovirus; assay: biochemical; parameters: MTase-Glo bioluminescence methyltransferase assay, full-length NSD2 with HeLa nucleosomes; conditions: inhibitor; read-out: MTase-Glo IC50
Sequence (O96028 2-1365 E1099K): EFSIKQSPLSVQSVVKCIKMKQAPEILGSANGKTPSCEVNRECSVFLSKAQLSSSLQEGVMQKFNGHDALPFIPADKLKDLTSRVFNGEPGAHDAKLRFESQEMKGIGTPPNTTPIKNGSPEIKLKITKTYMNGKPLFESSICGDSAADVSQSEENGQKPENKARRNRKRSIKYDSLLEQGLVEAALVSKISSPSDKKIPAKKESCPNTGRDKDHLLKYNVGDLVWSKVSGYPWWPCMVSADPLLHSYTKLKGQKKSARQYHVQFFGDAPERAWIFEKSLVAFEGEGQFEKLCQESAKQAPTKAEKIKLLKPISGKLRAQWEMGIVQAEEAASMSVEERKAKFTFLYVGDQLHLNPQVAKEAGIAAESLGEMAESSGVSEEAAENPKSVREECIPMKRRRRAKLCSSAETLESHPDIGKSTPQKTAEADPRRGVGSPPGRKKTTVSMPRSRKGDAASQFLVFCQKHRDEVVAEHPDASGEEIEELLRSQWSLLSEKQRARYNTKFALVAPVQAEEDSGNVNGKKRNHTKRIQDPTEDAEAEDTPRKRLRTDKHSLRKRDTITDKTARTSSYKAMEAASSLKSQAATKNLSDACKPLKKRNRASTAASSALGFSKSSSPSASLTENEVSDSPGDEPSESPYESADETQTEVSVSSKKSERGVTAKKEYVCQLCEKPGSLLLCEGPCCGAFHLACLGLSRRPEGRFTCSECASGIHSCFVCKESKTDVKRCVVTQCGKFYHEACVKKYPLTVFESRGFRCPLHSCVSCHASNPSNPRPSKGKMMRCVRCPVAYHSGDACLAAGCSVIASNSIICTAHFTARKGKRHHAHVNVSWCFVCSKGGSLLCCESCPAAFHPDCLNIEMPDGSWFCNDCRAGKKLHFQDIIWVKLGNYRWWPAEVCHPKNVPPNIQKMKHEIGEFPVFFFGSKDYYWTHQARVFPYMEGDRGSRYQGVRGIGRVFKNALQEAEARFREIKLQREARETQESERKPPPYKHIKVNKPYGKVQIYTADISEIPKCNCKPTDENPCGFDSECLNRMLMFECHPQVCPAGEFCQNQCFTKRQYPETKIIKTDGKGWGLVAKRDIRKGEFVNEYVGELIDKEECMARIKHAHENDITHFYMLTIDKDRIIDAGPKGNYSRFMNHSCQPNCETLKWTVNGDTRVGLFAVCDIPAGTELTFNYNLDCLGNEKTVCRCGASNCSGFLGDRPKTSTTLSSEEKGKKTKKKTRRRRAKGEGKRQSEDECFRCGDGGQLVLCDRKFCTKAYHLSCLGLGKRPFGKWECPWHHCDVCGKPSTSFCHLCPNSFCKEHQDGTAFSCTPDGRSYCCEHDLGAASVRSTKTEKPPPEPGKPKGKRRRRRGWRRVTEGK
MEASURED METRIC: IC50 (nM)

> print(dat)
                               mol.smiles                                    target  observed
1  O=C1C(Cl)=C(NCCN2CCOCC2)C(=O)c2ncccc21  NSD2 (Homo sapiens, UniProt O96028, E1099K)      2800

----------
target: NSD3 (Homo sapiens, UniProt Q9BZ95); test: HotSpot [3H]SAM filter-binding methyltransferase assay; assay type: biochemical; parameters: residues 1021-1322, GST fusion, E. coli; conditions: nucleosomes, […] SAM, Bicine pH […] DTT, […] °C, single experiment
Sequence (Q9BZ95 1021-1322): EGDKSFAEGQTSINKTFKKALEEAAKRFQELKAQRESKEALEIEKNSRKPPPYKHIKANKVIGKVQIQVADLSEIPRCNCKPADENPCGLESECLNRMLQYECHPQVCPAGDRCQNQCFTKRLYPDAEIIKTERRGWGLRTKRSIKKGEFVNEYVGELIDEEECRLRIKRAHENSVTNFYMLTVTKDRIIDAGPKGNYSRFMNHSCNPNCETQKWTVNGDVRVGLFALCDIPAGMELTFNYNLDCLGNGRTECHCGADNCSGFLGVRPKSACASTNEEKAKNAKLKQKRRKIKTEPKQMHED
pIC50: −log10 of the molar value.
Overview of reported pIC50 across a group of compounds:
MEASURED METRIC: pIC50

> print(dat)
                                 mol.smiles  observed
1    O=C1C(Cl)=C(NCCN2CCOCC2)C(=O)c2ncccc21      6.59
2  CC1(C)CCC(CN2CCN(c3ccc(C(=O)NS(=O)(=O)c4ccc(NCC5CCOCC5)c([N+](=O)[O-])c4)c(Oc4cnc5[nH]ccc5c4)c3)CC2)=C(c2ccc(Cl)cc2)C1      5.89
3  COc1cccc(-n2nc(C(=O)O)cc2-c2ccc(C3CCCCC3)c(Cl)c2)c1      5.64

----------
molecular target: UniProt O60678; assay: HotSpot [3H]SAM filter-binding methyltransferase assay; format: biochemical; parameters: residues 2-531, N-terminal His tag, E. coli
Sequence (O60678 2-531): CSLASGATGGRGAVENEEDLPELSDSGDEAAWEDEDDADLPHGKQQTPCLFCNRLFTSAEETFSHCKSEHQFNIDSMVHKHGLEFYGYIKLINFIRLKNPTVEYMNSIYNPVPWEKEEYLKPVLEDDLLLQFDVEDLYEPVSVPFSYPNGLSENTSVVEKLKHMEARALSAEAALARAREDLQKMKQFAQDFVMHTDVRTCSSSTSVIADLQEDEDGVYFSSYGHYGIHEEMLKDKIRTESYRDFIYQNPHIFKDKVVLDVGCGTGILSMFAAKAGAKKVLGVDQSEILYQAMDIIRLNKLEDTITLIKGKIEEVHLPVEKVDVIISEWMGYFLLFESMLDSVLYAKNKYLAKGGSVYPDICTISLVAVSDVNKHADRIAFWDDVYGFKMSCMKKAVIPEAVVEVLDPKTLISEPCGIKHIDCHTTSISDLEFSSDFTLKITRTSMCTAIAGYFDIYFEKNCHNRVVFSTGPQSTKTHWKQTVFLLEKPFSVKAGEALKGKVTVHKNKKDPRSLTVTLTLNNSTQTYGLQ
MEASURED METRIC: IC50 (µM)

> print(dat)
                                 mol.smiles  observed
1  CC1(C)CCC(CN2CCN(c3ccc(C(=O)NS(=O)(=O)c4ccc(NCC5CCOCC5)c([N+](=O)[O-])c4)c(Oc4cnc5[nH]ccc5c4)c3)CC2)=C(c2ccc(Cl)cc2)C1        36

----------
target: UniProt Q8NB12; test: biochemical
Sequence (Q8NB12 whole entry): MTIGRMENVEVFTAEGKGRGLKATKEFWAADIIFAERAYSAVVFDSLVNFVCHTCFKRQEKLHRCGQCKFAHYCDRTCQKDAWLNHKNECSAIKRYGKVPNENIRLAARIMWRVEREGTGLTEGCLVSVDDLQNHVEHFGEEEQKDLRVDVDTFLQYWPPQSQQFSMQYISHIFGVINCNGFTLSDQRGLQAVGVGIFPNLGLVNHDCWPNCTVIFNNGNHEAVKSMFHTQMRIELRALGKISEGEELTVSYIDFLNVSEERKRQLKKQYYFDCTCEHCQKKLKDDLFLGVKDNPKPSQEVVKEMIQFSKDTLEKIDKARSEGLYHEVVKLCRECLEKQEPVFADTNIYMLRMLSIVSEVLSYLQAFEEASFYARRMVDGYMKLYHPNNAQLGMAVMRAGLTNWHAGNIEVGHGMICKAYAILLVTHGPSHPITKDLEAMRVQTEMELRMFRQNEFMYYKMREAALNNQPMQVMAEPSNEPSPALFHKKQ
MEASURED METRIC: IC50 (µM)

> print(dat)
                                 mol.smiles  units  observed
1  Nc1ncnc2c1ncn2[C@@H]1O[C@H](CSCC[C@H](N)C(=O)O)[C@@H](O)[C@H]1O     µM        37

----------
target: PRMT5/MEP50 Complex (Homo sapiens); construct: coexpressed Flag-PRMT5 and His-MEP50, insect cell/baculovirus; with Methylosome protein WDR77; assay: HotSpot [3H]SAM filter-binding methyltransferase assay; settings: histone H2A, […] SAM, pH […] DTT, […] °C, single experiment
pIC50: −log10 of the molar value.
MEASURED METRIC: pIC50

> print(dat)
                                   compound  observed
1  COc1cccc(-n2nc(C(=O)O)cc2-c2ccc(C3CCCCC3)c(Cl)c2)c1 [TC LPA5 4]      6.48

----------
target: PRDM9 (Homo sapiens)
MEASURED METRIC: IC50 (nM)

> print(dat)
                                   compound  measured.metric  observed
1  O=C1C(Cl)=C(NCCN2CCOCC2)C(=O)c2ncccc21 [DA3003-1]             IC50       370

----------
molecular target: PRMT8 (Homo sapiens); construct: residues 61-394, N- and C-terminal His tags, E. coli; assay: HotSpot [3H]SAM filter-binding methyltransferase assay; type: biochemical; conditions: histone H4, […] SAM, pH […] MgCl2, […] DTT, […] °C, single experiment
Sequence (Q9NR22 61-394): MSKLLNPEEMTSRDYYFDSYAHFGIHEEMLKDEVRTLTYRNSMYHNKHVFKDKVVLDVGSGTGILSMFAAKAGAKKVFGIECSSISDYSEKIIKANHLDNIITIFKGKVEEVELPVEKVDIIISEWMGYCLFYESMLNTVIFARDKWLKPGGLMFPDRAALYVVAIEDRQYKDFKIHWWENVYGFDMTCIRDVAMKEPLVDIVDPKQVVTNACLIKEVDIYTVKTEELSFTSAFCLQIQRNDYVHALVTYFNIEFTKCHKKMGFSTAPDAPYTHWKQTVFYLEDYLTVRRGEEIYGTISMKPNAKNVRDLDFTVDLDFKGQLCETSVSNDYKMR
MEASURED METRIC: IC50 (µM)

> print(dat)
                                 mol.smiles  units  observed
1  COc1cccc(-n2nc(C(=O)O)cc2-c2ccc(C3CCCCC3)c(Cl)c2)c1     µM        71

----------
biological target: PRMT7 (Homo sapiens, UniProt Q9NVM4); test: biochemical
MEASURED METRIC: IC50 (µM)

> print(dat)
                                 mol.smiles  observed
1  CN1C(=O)[C@@]23C[C@]4([C@]56C[C@@]78SS[C@@](CO)(C(=O)N7[C@H]5Nc5ccccc56)N(C)C8=O)c5ccccc5N[C@@H]4N2C(=O)[C@]1(CO)SS3       156

----------
Target: NSD2 (Homo sapiens, UniProt O96028, T1150A)
Construct: full length (residues 2-1365), N-terminal His tag, insect cell/baculovirus
Sequence (O96028 2-1365 T1150A): as the sequence (O96028 2-1365 E1099K) above, with K1098E, T1149A counted along it
Assay: biochemical
Set-up: MTase-Glo bioluminescence methyltransferase assay, full-length NSD2 with HeLa nucleosomes
Conditions: inhibitor; read-out: MTase-Glo IC50
Excerpt: A major challenge in screening for small molecule inhibitors is that native NSD2 requires nucleosomes as a substrate ([17]). […] Chemical libraries were screened in 3-dose point quantitative high-throughput screening (qHTS) format ([43]) with the Methyltransferase-Glo (MTase-Glo™) methyltransferase bioluminescence assay ([44]). A number of counter and orthogonal assays were also developed to characterize the hits from the primary screen. […]
pIC50: −log10 of the molar value.
MEASURED METRIC: pIC50

> print(dat)
                                   compound                                    target  measured.metric  observed
1  O=C1C(Cl)=C(NCCN2CCOCC2)C(=O)c2ncccc21 [DA3003-1]  NSD2 (Homo sapiens, UniProt O96028, T1150A)            pIC50      5.54

----------
biological target: NSD2 (Homo sapiens, UniProt O96028, E1099K); construct: full length (residues 2-1365), N-terminal His tag, insect cell/baculovirus; assay: HotSpot [3H]SAM filter-binding methyltransferase assay; format: biochemical
MEASURED METRIC: IC50 (nM)

> print(dat)
                                 mol.smiles  observed
1  CC1(C)CCC(CN2CCN(c3ccc(C(=O)NS(=O)(=O)c4ccc(NCC5CCOCC5)c([N+](=O)[O-])c4)c(Oc4cnc5[nH]ccc5c4)c3)CC2)=C(c2ccc(Cl)cc2)C1      2200

----------
biological target: SET1b Complex (Homo sapiens); test: biochemical; design: gene SETD1B
Sequence (Q9UPS6 whole entry, looked up, one chain of several): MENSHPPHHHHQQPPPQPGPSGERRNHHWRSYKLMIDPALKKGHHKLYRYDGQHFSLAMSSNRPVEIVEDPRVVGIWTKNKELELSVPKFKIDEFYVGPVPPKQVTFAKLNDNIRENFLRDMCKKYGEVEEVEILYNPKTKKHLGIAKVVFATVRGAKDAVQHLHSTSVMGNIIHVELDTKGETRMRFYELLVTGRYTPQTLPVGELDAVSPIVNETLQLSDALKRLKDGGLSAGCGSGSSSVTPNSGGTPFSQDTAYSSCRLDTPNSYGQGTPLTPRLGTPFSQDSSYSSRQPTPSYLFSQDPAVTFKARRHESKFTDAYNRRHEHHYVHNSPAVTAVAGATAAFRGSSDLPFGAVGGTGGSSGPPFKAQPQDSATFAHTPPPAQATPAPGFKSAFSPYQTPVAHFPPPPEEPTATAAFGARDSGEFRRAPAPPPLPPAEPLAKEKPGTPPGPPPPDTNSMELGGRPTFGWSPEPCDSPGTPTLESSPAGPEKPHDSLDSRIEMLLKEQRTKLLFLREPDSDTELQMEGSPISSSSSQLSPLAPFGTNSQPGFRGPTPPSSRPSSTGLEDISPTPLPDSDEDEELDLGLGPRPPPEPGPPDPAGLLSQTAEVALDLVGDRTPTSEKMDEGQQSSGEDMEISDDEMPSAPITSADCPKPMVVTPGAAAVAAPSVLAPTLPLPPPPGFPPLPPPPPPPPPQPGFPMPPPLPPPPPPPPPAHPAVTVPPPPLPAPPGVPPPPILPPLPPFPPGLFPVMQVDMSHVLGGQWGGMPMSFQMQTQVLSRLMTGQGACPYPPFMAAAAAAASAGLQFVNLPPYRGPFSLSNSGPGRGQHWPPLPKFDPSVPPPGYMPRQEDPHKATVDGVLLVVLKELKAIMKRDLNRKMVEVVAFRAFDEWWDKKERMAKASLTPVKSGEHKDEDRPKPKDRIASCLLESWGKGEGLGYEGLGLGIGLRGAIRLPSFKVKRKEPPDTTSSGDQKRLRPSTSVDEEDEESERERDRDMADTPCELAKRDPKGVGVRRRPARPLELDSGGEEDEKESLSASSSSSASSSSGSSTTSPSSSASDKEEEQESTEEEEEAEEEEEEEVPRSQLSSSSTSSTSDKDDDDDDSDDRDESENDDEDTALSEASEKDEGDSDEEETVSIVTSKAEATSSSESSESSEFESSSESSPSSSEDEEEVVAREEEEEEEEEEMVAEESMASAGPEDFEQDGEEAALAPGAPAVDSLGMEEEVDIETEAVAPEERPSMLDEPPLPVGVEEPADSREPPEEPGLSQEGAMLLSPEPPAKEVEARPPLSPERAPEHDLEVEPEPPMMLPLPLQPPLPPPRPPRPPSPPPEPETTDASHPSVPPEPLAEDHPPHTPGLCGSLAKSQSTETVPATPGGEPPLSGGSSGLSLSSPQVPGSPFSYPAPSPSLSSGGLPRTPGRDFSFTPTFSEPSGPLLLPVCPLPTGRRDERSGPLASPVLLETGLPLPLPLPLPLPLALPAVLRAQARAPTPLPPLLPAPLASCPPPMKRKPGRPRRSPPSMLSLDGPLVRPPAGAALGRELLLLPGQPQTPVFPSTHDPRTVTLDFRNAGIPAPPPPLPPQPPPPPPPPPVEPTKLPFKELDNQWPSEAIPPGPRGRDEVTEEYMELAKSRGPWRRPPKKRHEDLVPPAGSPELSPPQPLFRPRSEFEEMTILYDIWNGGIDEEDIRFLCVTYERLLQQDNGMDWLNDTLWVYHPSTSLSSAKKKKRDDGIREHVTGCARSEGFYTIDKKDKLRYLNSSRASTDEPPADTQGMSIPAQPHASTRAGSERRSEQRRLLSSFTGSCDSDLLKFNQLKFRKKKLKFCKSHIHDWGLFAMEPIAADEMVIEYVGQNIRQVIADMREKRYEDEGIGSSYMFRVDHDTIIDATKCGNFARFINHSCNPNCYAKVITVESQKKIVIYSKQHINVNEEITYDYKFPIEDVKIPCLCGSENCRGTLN
pIC50: −log10 of the molar value.
MEASURED METRIC: pIC50

> print(dat)
                                 mol.smiles  measured.metric  observed
1  Nc1ncnc2c1ncn2[C@@H]1O[C@H](CSCC[C@H](N)C(=O)O)[C@@H](O)[C@H]1O            pIC50      5.82

----------
Biological target: GLP (Homo sapiens, UniProt Q9H9B1)
Construct: gene EHMT1
Sequence (Q9H9B1 1-1298): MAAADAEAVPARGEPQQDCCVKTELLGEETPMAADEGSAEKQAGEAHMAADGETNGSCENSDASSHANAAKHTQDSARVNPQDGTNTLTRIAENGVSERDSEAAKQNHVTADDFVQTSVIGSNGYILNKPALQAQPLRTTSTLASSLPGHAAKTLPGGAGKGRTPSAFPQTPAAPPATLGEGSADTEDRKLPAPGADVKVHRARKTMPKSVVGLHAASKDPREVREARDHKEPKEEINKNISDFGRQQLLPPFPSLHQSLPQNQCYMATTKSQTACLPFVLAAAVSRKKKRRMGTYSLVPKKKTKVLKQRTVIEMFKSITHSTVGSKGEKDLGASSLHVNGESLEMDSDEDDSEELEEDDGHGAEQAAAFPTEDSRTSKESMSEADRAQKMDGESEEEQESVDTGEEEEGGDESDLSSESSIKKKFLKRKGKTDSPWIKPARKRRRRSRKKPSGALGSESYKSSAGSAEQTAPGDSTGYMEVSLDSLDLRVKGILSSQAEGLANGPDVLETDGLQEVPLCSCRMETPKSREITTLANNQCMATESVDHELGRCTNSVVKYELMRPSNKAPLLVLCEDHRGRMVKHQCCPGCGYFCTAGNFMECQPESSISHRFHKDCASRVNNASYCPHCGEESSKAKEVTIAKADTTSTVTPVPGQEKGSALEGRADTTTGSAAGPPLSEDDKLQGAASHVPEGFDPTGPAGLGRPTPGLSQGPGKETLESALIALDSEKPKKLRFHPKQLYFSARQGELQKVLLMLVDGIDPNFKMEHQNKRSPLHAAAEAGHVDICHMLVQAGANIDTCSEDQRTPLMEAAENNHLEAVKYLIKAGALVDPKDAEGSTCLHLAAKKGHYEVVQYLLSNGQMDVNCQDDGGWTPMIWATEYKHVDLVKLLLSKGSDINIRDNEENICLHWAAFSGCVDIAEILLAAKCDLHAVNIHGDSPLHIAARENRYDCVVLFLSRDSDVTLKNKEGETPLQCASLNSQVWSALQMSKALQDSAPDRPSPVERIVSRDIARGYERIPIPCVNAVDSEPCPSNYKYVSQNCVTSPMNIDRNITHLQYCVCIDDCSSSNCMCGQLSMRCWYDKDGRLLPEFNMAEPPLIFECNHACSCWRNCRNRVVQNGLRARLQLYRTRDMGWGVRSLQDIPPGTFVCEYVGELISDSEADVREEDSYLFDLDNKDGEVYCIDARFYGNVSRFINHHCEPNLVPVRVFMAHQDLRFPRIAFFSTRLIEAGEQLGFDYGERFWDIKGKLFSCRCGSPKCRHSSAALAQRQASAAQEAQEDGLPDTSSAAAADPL
Assay: biochemical
pIC50: −log10 of the molar value.
MEASURED METRIC: pIC50

> print(dat)
                                 mol.smiles  observed
1  CN1C(=O)[C@@]23C[C@]4([C@]56C[C@@]78SS[C@@](CO)(C(=O)N7[C@H]5Nc5ccccc56)N(C)C8=O)c5ccccc5N[C@@H]4N2C(=O)[C@]1(CO)SS3      4.11
